For each entry below, report its protein stability index value.
B1: TRIM29 (parent)
chain: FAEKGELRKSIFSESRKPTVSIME

Variants of: B1
Assay: protein stability index of a GFP-peptide fusion (GPS, HEK-293T) (PSI 1-6); higher = more stable;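 also: lentivirally expressed fusions sorted by FACS into six bins by GFP to DsRed ratio, PSI derived from sequencing read proportions per bin multiplied by bin number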
Conditions: c terminus: a fixed tail appended
No unit in the answer, only the number.

Q: Given the entry `G5A` , report its measured protein stability index.
A: 1.99

Q: Next variant: `E14V`
A: 2.05

Q: And what about the variant `E24Q` ?
A: 1.95

Q: Field entry: `S21L`
A: 2.05

Q: `E14A` ?
A: 2.01

Q: Do the same for `R16F` please
A: 1.96

Q: Next variant up: `V20D`
A: 2.02

Q: Same for `P18A`
A: 2.01

Q: Cool, now `T19Y`
A: 2
